The values you see were collected from the supplement of paper PMC12350171.

system: Shigella flexneri; assay: growth AUC normalised to DMSO control (fraction of control); higher = less growth inhibition, active = hit call of the paper; details: 20 µM
Structures can show the parent of a compound that is named as a salt.

{"compound": "NC[C@H]1CC[C@H](C(=O)O)CC1", "growth AUC normalised to DMSO control": 1.01}
{"compound": "CC1c2cccc(O)c2C(O)=C2C(=O)C3(O)C(O)=C(C(N)=O)C(=O)C(N(C)C)C3C(O)C21 (centres undefined) [Doxycycline hydrochloride]", "growth AUC normalised to DMSO control": 0.00494}
{"compound": "O=C(NCCN1CCOCC1)c1ccc(Cl)cc1 [Moclobemide]", "growth AUC normalised to DMSO control": 0.961}
{"compound": "O=S(=O)(O)CCS", "growth AUC normalised to DMSO control": 1.02}
{"compound": "CCN(CC)C(=O)N1CCN(C)CC1 [Diethylcarbamazine citrate]", "growth AUC normalised to DMSO control": 0.973}
{"compound": "CC(=O)/N=c1/sc(S(N)(=O)=O)nn1C [Methazolamide]", "growth AUC normalised to DMSO control": 1.04}
{"compound": "COc1cc(NC(C)CCCN)c2ncccc2c1 (centres undefined) [Primaquine diphosphate]", "growth AUC normalised to DMSO control": 1.01}
{"compound": "CC12CC3CC(C)(C1)CC(N)(C3)C2 [Memantine hydrochloride]", "growth AUC normalised to DMSO control": 0.99}
{"compound": "COc1cccc2c1C(=O)c1c(O)c3c(c(O)c1C2=O)C[C@@](O)(C(=O)CO)C[C@@H]3O[C@H]1C[C@H](N)[C@H](O)[C@H](C)O1 [Doxorubicin hydrochloride]", "growth AUC normalised to DMSO control": 0.932}
{"compound": "Cn1c(=O)c2c(ncn2CC2OCCO2)n(C)c1=O", "growth AUC normalised to DMSO control": 1.07}
{"compound": "OC(c1cc(C(F)(F)F)nc2c(C(F)(F)F)cccc12)C1CCCCN1 (centres undefined) [Mefloquine hydrochloride]", "growth AUC normalised to DMSO control": 0.975}
{"compound": "C[C@]12CC[C@@H]3c4ccc(O)cc4C[C@@H](CCCCCCCCC[S+]([O-])CCCC(F)(F)C(F)(F)F)[C@H]3[C@@H]1CC[C@@H]2O (some centres undefined)", "growth AUC normalised to DMSO control": 1.09}
{"compound": "Nc1nc(O)c2ncn(CCC(CO)CO)c2n1", "growth AUC normalised to DMSO control": 1.01}
{"compound": "O=C(O)CCC(=O)c1ccc(-c2ccccc2)cc1", "growth AUC normalised to DMSO control": 0.99}
{"compound": "CCCNC(C)C(=O)Nc1c(C)csc1C(=O)OC (centres undefined) [Articaine hydrochloride]", "growth AUC normalised to DMSO control": 1.03}
{"compound": "CCN(CC)C(=S)SSC(=S)N(CC)CC", "growth AUC normalised to DMSO control": 0.968}
{"compound": "c1ccc2[nH]c(-c3cscn3)nc2c1", "growth AUC normalised to DMSO control": 0.954}
{"compound": "CCOC(=O)C1=C(C)NC(C)=C(C(=O)OCC)C1c1ccccc1/C=C/C(=O)OC(C)(C)C", "growth AUC normalised to DMSO control": 1}
{"compound": "C#C[C@]1(O)CC[C@H]2[C@@H]3CCc4cc(O)ccc4[C@H]3CC[C@@]21C", "growth AUC normalised to DMSO control": 1.02}

====

system: Yersinia pseudotuberculosis; assay: growth AUC normalised to DMSO control (fraction of control); higher = less growth inhibition, active = hit call of the paper; conditions: 20 µM
Counter-ions that a name gives are not always drawn.
Tag: Y if measured growth AUC normalised to DMSO control is not below 1, N if it is.

{"compound": "O=C(NCC(O)CO)c1c(I)c(C(=O)NCC(O)CO)c(I)c(N(CCO)C(=O)CO)c1I (stereo not drawn)", "cat": "Y"}
{"compound": "CC(=O)NC[C@H]1CN(c2ccc(N3CCOCC3)c(F)c2)C(=O)O1", "cat": "N"}
{"compound": "CN[C@@H]1[C@H](O[C@H]2[C@H](O[C@H]3[C@H](O)[C@@H](O)[C@H](N=C(N)N)[C@@H](O)[C@@H]3N=C(N)N)O[C@@H](C)[C@]2(O)C=O)O[C@@H](CO)[C@H](O)[C@H]1O [Streptomycin sulfate]", "cat": "N"}
{"compound": "CC(=O)O[C@H]1C[C@@]2(C)[C@@H](C[C@@H](O)[C@H]3[C@@]4(C)CC[C@@H](O)[C@@H](C)[C@@H]4CC[C@@]32C)/C1=C(\\CCC=C(C)C)C(=O)O [Fusidic acid sodium salt]", "cat": "N"}
{"compound": "CC(C)(C)C(=O)OCOC(=O)[C@@H]1N2C(=O)[C@@H](NC(=O)[C@H](N)c3ccccc3)[C@H]2SC1(C)C", "cat": "N"}
{"compound": "Clc1ccc(C(Cn2ccnc2)OCc2csc3c(Cl)cccc23)c(Cl)c1 (stereo not drawn) [Sertaconazole nitrate]", "cat": "N"}
{"compound": "O=c1[nH]cc(F)c(=O)[nH]1", "cat": "N"}
{"compound": "CCOC(=O)c1ccc(N)cc1", "cat": "Y"}
{"compound": "CCc1ccc(CCOc2ccc(CC3SC(=O)NC3=O)cc2)nc1 (stereo not drawn)", "cat": "N"}

====

tested on: S. enterica typhimurium WT; test: growth AUC normalised to DMSO control (median) (fraction of control); higher = less growth inhibition, active = hit call of the paper; details: 20 µM
Where a name gives a salt, the structure may show the parent alone.
Readings of growth AUC normalised to DMSO control for the listed molecules

{"molecule": "c1ccc2c(c1)CCCC2C1=NCCN1 (stereo not given) [Tetrahydrozoline hydrochloride]", "growth AUC normalised to DMSO control": 0.996}
{"molecule": "CCCCCOC(=O)Nc1nc(=O)n([C@@H]2O[C@H](C)[C@@H](O)[C@H]2O)cc1F [Capecitabine]", "growth AUC normalised to DMSO control": 0.982}
{"molecule": "Cc1cc(C(C)(C)C)c(O)c(C)c1CC1=NCCN1 [Oxymetazoline hydrochloride]", "growth AUC normalised to DMSO control": 1.01}
{"molecule": "CN(C)CCN(Cc1ccc(Cl)cc1)c1ccccn1 [Chloropyramine hydrochloride]", "growth AUC normalised to DMSO control": 0.988}
{"molecule": "CN(C)CCC=C1c2ccccc2CCc2ccccc21 [Amitryptiline hydrochloride]", "growth AUC normalised to DMSO control": 0.998}
{"molecule": "CCN(CC)CCOc1ccc(C(=C(Cl)c2ccccc2)c2ccccc2)cc1 [(Z,E) Clomiphene citrate]", "growth AUC normalised to DMSO control": 1.01}
{"molecule": "CCOCC(O)COc1ccc(NC(=O)CC[S+](C)C)cc1 (stereo not given) [Suplatast Tosylate]", "growth AUC normalised to DMSO control": 1}
{"molecule": "CC(C(=O)O)c1ccc(-c2ccccc2)c(F)c1 (stereo not given) [Flurbiprofen]", "growth AUC normalised to DMSO control": 0.995}
{"molecule": "COc1cc(NC(C)CCCN)c2ncccc2c1 (stereo not given) [Primaquine diphosphate]", "growth AUC normalised to DMSO control": 1.01}
{"molecule": "CO/N=C(\\C(=O)N[C@@H]1C(=O)N2C(C(=O)OC(C)OC(C)=O)=C(COC(N)=O)CS[C@H]12)c1ccco1 (stereo not given in full) [Cefuroxime axetil]", "growth AUC normalised to DMSO control": 1.1}
{"molecule": "CN(C)CCCO[C@@H]1[C@H]2OC(C)(C)O[C@H]2O[C@@H]1[C@H](O)CO [Amiprilose hydrochloride]", "growth AUC normalised to DMSO control": 1.01}
{"molecule": "N[C@@H]1CONC1=O [D-cycloserine]", "growth AUC normalised to DMSO control": 0.994}
{"molecule": "CN[C@H](CC(C)C)C(=O)N[C@H]1C(=O)N[C@@H](CC(N)=O)C(=O)N[C@H]2C(=O)N[C@H]3C(=O)N[C@H](C(=O)N[C@H](C(=O)O)c4cc(O)cc(O)c4-c4cc3ccc4O)[C@H](O)c3ccc(c(Cl)c3)Oc3cc2cc(c3O[C@@H]2O[C@H](CO)[C@@H](O)[C@H](O)[C@H]2O[C@H]2C[C@](C)(N)[C@H](O)[C@H](C)O2)Oc2ccc(cc2Cl)[C@H]1O [Vancomycin hydrochloride]", "growth AUC normalised to DMSO control": 0.996}
{"molecule": "CC(=O)[C@H]1CC[C@H]2[C@@H]3C[C@H](C)C4=CC(=O)CC[C@]4(C)[C@H]3[C@@H](O)C[C@]12C [Medrysone]", "growth AUC normalised to DMSO control": 1.01}
{"molecule": "COc1cnc(NS(=O)(=O)c2ccc(N)cc2)nc1 [Sulfameter]", "growth AUC normalised to DMSO control": 0.993}

====

tested on: P. vulgatus WT; test: growth AUC normalised to DMSO control (median) (fraction of control); higher = less growth inhibition, active = hit call of the paper; details: 20 µM
Tag: Y if measured growth AUC normalised to DMSO control is not below 1, N if it is.

{"compound": "C=C(NC(=O)C(=C)NC(=O)c1csc(C2=N[C@@H]3c4csc(n4)[C@H]4NC(=O)c5csc(n5)[C@H]([C@](C)(O)[C@@H](C)O)NC(=O)[C@H]5CSC(=N5)/C(=C/C)NC(=O)[C@H]([C@@H](C)O)NC(=O)c5csc(n5)[C@]3(CC2)NC(=O)[C@H](C)NC(=O)C(=C)NC(=O)[C@H](C)NC(=O)[C@H]([C@@H](C)CC)N[C@@H]2C=Cc3c([C@H](C)O)cc(nc3[C@H]2O)C(=O)O[C@@H]4C)n1)C(N)=O", "tested_system": "P. vulgatus WT", "cat": "N"}
{"compound": "O=C(O)Cc1ccccc1Nc1c(Cl)cccc1Cl [Diclofenac sodium]", "tested_system": "P. vulgatus WT", "cat": "N"}
{"compound": "O=c1[nH]cnc2c1ncn2[C@@H]1O[C@H](CO)[C@@H](O)[C@H]1O", "tested_system": "P. vulgatus WT", "cat": "Y"}
{"compound": "CN1CCC[C@@H]1Cc1c[nH]c2ccc(CCS(=O)(=O)c3ccccc3)cc12", "tested_system": "P. vulgatus WT", "cat": "Y"}
